Listed here are compounds together with their documented pIC50.
system: HIV-1 X4-28 Env; experiment: microbe, parasite or virus in culture; assay type: cell-based; details: Human immunodeficiency virus 1, 48 h, read-out: extrapolated IC50, infection with X4-28 Env
pIC50 field: float, defined as -log10 of concentration (mol/L).

C(CCCCCCNC1=NCCN1)CCCCCNC1=NCCN1 | 6.14

Looking up `C(CCCCCNC1=NCCN1)CCCCNC1=NCCN1` , I see its pIC50 listed as 5.96

###

Target: CXCR4 (Homo sapiens, UniProt P61073)
Sequence (P61073 whole entry): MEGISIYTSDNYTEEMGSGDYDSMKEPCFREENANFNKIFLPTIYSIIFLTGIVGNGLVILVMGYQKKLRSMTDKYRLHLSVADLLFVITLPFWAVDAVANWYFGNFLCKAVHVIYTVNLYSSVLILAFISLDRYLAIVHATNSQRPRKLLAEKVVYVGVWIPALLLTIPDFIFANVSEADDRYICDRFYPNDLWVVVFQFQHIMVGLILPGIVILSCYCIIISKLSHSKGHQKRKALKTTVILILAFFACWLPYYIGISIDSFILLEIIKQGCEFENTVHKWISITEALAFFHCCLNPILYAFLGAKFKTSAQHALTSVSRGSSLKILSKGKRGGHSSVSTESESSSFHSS
Experiment: HTRF dilution series assay on CXCR4 (displacement of red-CXCL12)
Details: HEK293 ST-CXCR4 cells, red-CXCL12 20 nM, 2 h 16 °C, one-site competitive model; read-out: HTRF CXCR4-SDF1 IC50
Procedure: To obtain information on the structural requirements necessary for the interaction with CXCR4, we performed dilution series experiments (see Section 3.4.) by varying the concentrations of bis-imidazoline compounds in the HTRF assay used for the screening campaign (Table 1 and Figure 1A). A three-fold serial dilution in DMSO was performed for each compound. Each concentration was tested in duplicate. For these experiments, Tag-lite CXCR4 and Tag-lite CXCR7 cell lines (5000 cells per well) were used. […]
property measured: IC50 (µM)
Form entry: value (µM) — number only.

C(CCCNC1=NCCN1)CCCNC1=NCCN1 [mr20346] | 1.85
C(CCCCNC1=NCCN1)CCCNC1=NCCN1 [mr20347] | 0.35
C(CCCCCNC1=NCCN1)CCCCNC1=NCCN1 [mr20349] | 0.47
C(CCCNC1=NCCN1)CCNC1=NCCN1 [mr20345] | 40.9
C(CCCCCNC1=NCCN1)CCCCCNC1=NCCN1 [mr34200] | 15.5

Looking up C(CCCCNC1=NCCN1)CCCCNC1=NCCN1 [mr20348] , I see its IC50 listed as 6.62

Cited source for all entries: paper PMC9920567
